The origin of these recorded values is patent US20040224958A1.

target: cdk2/cyclinA (Homo sapiens, UniProt P24941); assay: Cyclin-Dependent Kinase Assay cdk2/cyclinA; details: cdk2/A IC50
pIC50: −log10 of the molar value.
recordedMetric: pIC50

Some molecules with known pIC50 results, for comparison:
molecule	observedResult
CCC(C)n1c(=O)ccc2cnc(Nc3ccc(N(C)C(C)=O)cc3)nc21 (stereo not shown)	6.28
CCCCn1c(=O)ccc2cnc(Nc3ccc(F)c(C(F)(F)F)c3)nc21	6.33
CCCCn1c(=O)ccc2cnc(Nc3cccc(C(F)(F)F)c3)nc21	5.94
CC(C)n1c(=O)ccc2cnc(Nc3ccc(Cl)c(C(F)(F)F)c3)nc21	6.04

(a) CCCCn1c(=O)ccc2cnc(Nc3cc(F)cc(F)c3)nc21
(b) CCC(C)n1c(=O)ccc2cnc(Nc3cc(Cl)c(Cl)c(Cl)c3)nc21 (stereo not shown)
In: Hi, I'm comparing a with b and wondering which one has the bigger number for pIC50. Any idea? I would appreciate it if you answered with the label of your choice.
Out: a
(a: 6.19, b: 5.74)

(P) O=c1ccc2cnc(Nc3ccc(O)c([N+](=O)[O-])c3)nc2n1C1CCCC1
(Q) CCn1c(=O)ccc2cnc(Nc3ccc4[nH]ncc4c3)nc21
(R) Cn1c(=O)ccc2cnc(Nc3ccc(NC(=O)OC(C)(C)C)cc3)nc21
(S) COc1ccc(Nc2ncc3ccc(=O)n(C4CCCC4)c3n2)cc1OC
(T) CCn1c(=O)ccc2cnc(Nc3ccc(F)c(C(F)(F)F)c3)nc21
In: Rank descending by pIC50. # respond with the labels, arranged in the requested order
Out: P, S, Q, T, R
(P: 7.85, S: 7.38, Q: 6.20, T: 5.82, R: 5.44)

(I) O=c1ccc2cnc(Nc3ccc(F)c([N+](=O)[O-])c3)nc2n1CC1CC1
(II) COc1cc(Nc2ncc3ccc(=O)n(C(C)C)c3n2)cc(OC)c1OC
In: Look at I and II . Which one has the lower recorded pIC50 number? I would appreciate it if you answered with the label of your choice.
Out: II
(II: 6.06, I: 6.31)

(P) CCC(CC)n1c(=O)ccc2cnc(Nc3ccc(OC(F)(F)F)cc3)nc21
(Q) O=C1CSc2ccc(Nc3ncc4ccc(=O)n(CC5CC5)c4n3)cc2N1
In: Look at P and Q . Which one has the lower recorded pIC50 number? I would appreciate it if you answered with the label of your choice.
Out: P

---

target: cdc2/cyclinB (Homo sapiens); experiment: Cyclin-Dependent Kinase Assay cdc2/cyclinB
recordedMetric: IC50 (nM)

(A) CCC(CC)n1c(=O)ccc2cnc(Nc3cccc(I)c3)nc21
(B) CCCCn1c(=O)ccc2cnc(Nc3ccc(OC)c(F)c3)nc21
In: Hi, I'm comparing A with B and wondering which one has the bigger number for IC50. Any idea? I would appreciate it if you answered with the label of your choice.
Out: B

---

biological target: cdc2/cyclinB (Homo sapiens, UniProt P06493); assay: Cyclin-Dependent Kinase Assay cdc2/cyclinB
Sequence (P06493 whole entry): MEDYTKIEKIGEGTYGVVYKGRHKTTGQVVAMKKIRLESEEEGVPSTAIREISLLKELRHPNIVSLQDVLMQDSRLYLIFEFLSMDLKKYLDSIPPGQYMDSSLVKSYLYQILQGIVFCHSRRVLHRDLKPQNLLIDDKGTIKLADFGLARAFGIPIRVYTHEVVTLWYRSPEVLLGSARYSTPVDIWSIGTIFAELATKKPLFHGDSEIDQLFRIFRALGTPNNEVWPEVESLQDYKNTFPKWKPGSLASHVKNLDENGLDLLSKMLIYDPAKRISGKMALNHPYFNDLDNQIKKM
Sequence (P14635 whole entry, further chain): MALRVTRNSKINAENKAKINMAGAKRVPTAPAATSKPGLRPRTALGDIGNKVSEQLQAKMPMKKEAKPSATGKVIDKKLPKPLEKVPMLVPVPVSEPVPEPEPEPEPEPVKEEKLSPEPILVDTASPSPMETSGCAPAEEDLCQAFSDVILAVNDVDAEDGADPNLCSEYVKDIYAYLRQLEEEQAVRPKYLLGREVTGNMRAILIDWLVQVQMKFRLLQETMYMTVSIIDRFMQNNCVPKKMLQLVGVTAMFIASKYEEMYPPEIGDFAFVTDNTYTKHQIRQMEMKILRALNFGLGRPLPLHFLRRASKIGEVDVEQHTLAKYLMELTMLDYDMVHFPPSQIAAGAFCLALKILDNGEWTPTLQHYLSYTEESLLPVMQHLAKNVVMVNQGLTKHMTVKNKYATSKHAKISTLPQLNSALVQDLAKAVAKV
recordedMetric: IC50 (nM)

compound	IC50 (nM)
CCC(C)n1c(=O)ccc2cnc(Nc3ccc(Cl)c(C)c3)nc21 (stereo not shown) [Example 456]	130
CCCn1c(=O)ccc2cnc(Nc3ccc4[nH]nnc4c3)nc21 [Example 325]	1440
CCn1c(=O)ccc2cnc(Nc3ccc(O)cc3F)nc21 [Example 289]	1250
CCC(CC)n1c(=O)ccc2cnc(Nc3ccc(Cl)c(Cl)c3)nc21 [Example 511]	140
O=c1ccc2cnc(Nc3cc(F)c(F)c(F)c3)nc2n1CC1CC1 [Example 588]	710

(P) Cc1cc(Nc2ncc3ccc(=O)n(C(C)C)c3n2)ccc1F [Example 408]
(Q) Nc1c(Cl)cc(Nc2ncc3ccc(=O)n(C4CCCC4)c3n2)cc1Cl [Example 557]
(R) CCn1c(=O)ccc2cnc(Nc3ccc(F)c(F)c3)nc21 [Example 301]
(S) CCC(C)n1c(=O)ccc2cnc(Nc3ccc4[nH]ncc4c3)nc21 (stereo not shown) [Example 448]
(T) CCn1c(=O)ccc2cnc(Nc3ccc(C#N)cc3)nc21 [Example 304]
In: Give the ascending ranking of the items by reported IC50. # respond with the labels, arranged in the requested order
Out: S, Q, P, R, T
(S: 26.5 nM, Q: 73 nM, P: 190 nM, R: 600 nM, T: 2200 nM)

---

Form field: melting point (one value per entry).

Some compounds with known melting point results, for comparison:
compound	recordedMetric	observedResult
CC(C)n1c(=O)ccc2cnc(Nc3ccc(N4CCC(CCCN5CCOCC5)CC4)cc3)nc21 [Example 260]	melting point	195 to 196 °C
O=c1ccc2cnc(Nc3ccc(N4CCC(O)CC4)cc3)nc2n1C1CC2CCC1C2 (stereo not shown) [Example 227]	melting point	206 °C
O=c1ccc2cnc(Nc3ccc(-n4cccn4)cc3)nc2n1C1CC2CCC1C2 (stereo not shown) [Example 218]	melting point	234 to 235 °C

Attention now shifts to the item below.
In: Please look up its melting point: O=c1ccc2cnc(Nc3ccc(N4CCC(CCCO)CC4)cc3)nc2n1C1CCCC1 [Example 197]
Out: 208 to 209 °C

---

biological target: cdk4/D (Homo sapiens); assay: Cyclin-Dependent Kinase 4 (cdk4) Assay; type: biochemical; settings: Table 3; read-out: Cdk4 IC50
Sequence (P11802 whole entry): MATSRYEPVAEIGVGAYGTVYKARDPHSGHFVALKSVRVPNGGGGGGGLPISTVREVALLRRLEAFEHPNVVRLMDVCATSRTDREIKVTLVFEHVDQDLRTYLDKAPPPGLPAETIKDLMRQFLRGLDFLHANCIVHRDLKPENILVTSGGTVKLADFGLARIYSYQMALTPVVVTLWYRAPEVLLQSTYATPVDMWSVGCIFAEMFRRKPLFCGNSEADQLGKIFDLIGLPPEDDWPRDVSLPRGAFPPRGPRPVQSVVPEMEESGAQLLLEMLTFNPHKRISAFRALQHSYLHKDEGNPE
Sequence (P24385 whole entry, further chain): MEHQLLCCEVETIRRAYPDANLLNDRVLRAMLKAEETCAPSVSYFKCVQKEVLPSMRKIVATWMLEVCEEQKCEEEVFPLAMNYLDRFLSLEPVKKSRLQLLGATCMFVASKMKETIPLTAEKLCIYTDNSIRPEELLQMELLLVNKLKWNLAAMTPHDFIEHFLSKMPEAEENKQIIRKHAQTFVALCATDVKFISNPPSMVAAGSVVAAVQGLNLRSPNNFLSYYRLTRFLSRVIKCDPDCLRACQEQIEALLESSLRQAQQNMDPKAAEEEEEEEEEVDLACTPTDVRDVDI
recordedMetric: IC50 (µM)

chemicalStructure	measuredTarget	recordedMetric	observedResult
CCC(CC)n1c(=O)ccc2cnc(Nc3ccccc3)nc21	cdk4/D (Homo sapiens)	IC50	0.159
CC(C)n1c(=O)ccc2cnc(Nc3cccc([N+](=O)[O-])c3)nc21	cdk4/D (Homo sapiens)	IC50	6.25
CC(C)n1c(=O)ccc2cnc(Nc3ccc(O)cc3)nc21	cdk4/D (Homo sapiens)	IC50	0.255
CCn1c(=O)ccc2cnc(Nc3ccc(F)cc3)nc21	cdk4/D (Homo sapiens)	IC50	1.24

(A) Cn1c(=O)ccc2cnc(Nc3ccccc3)nc21
(B) COc1ccc(Nc2ncc3ccc(=O)n(C(C)C)c3n2)cc1
In: Hi, I'm comparing A with B and wondering which one has the bigger number for IC50. Any idea? I would appreciate it if you answered with the label of your choice.
Out: A
(A: 5.48 µM, B: 0.617 µM)

---

target: cdk2/cyclinA (Homo sapiens); experiment: Cyclin-Dependent Kinase Assay cdk2/cyclinA; conditions: cdk2/A IC50, Table 1
pIC50: −log10 of the molar value.
recordedMetric: pIC50

Some compounds with known pIC50 results, for comparison:
compound	recordedMetric	observedResult
O=c1ccc2cnc(Nc3ccc(N4CCCCC4)cc3)nc2n1C1CCOC1 (racemic)	pIC50	6.55
CCN(CC)CCOc1ccc(Nc2ncc3ccc(=O)n(C4CCCCC4)c3n2)cc1	pIC50	7.22
CC1CN(c2ccc(Nc3ncc4ccc(=O)n(C5CCCCC5)c4n3)cc2)CC(C)N1 (centres unmarked)	pIC50	7.49
O=c1ccc2cnc(Nc3ccc(N4CCCC(CO)C4)cc3)nc2n1C1CC2CCC1C2 (centres unmarked)	pIC50	7.20
O=c1ccc2cnc(Nc3ccc(N4CCC(O)CC4)cc3)nc2n1C1CCCCC1	pIC50	8.08

(P) O=c1ccc2cnc(Nc3ccc(N4CCC(CCCN5CCOCC5)CC4)cc3)nc2n1C1CC2CCC1C2 (centres unmarked)
(Q) O=c1ccc2cnc(Nc3ccc(N4CCC(CCCO)CC4)cc3)nc2n1C1CC2CCC1C2 (centres unmarked)
(R) CCN(CC)CCOc1ccc(Nc2ncc3ccc(=O)n(C4CCCC4)c3n2)cc1
(S) O=c1ccc2cnc(Nc3ccc(N4CCCCC4)cc3)nc2n1C1CCOCC1
(T) O=c1ccc2cnc(Nc3ccc(F)cc3)nc2n1C1CC2CCC1C2 (centres unmarked)
In: Rank descending by pIC50. # respond with the labels, arranged in the requested order
Out: T, R, P, Q, S

---

target: cdc2/cyclinB (Homo sapiens); test: Cyclin-Dependent Kinase Assay cdc2/cyclinB
pIC50: −log10 of the molar value.
recordedMetric: pIC50

molecule	measuredTarget	pIC50
CCCn1c(=O)ccc2cnc(Nc3ccc([N+](=O)[O-])cc3F)nc21	cdc2/cyclinB (Homo sapiens)	6.17
CCC(CC)n1c(=O)ccc2cnc(Nc3ccc(C(F)(F)F)cc3)nc21	cdc2/cyclinB (Homo sapiens)	6.85
O=c1ccc2cnc(Nc3ccc(N4CCC(CCO)CC4)cc3)nc2n1C1CC2CCC1C2 (stereo not shown)	cdc2/cyclinB (Homo sapiens)	6.42
CCCn1c(=O)ccc2cnc(Nc3ccc(F)cc3F)nc21	cdc2/cyclinB (Homo sapiens)	5.91
Cc1ccc(Nc2ncc3ccc(=O)n(C4CCCC4)c3n2)cc1Cl	cdc2/cyclinB (Homo sapiens)	6.74

(I) CCN(CC)CCOc1ccc(Nc2ncc3ccc(=O)n(C4CC5CCC4C5)c3n2)cc1 (stereo not shown)
(II) Cc1cc(Nc2ncc3ccc(=O)n(C4CCCC4)c3n2)ccc1Br
(III) O=c1ccc2cnc(Nc3ccc(Br)c(C(F)(F)F)c3)nc2n1CC1CC1
In: Give the ascending ranking of the items by reported pIC50. # respond with the labels, arranged in the requested order
Out: III, I, II

(P) O=c1ccc2cnc(Nc3ccc(O)cc3F)nc2n1CC1CC1
(Q) CC(C)n1c(=O)ccc2cnc(Nc3ccc4c(c3)CCCC4=O)nc21
(R) CCCn1c(=O)ccc2cnc(Nc3cccc(S(N)(=O)=O)c3)nc21
(S) CCC(CC)n1c(=O)ccc2cnc(Nc3cccc(O)c3)nc21
In: Give the ascending ranking of the items by reported pIC50. # respond with the labels, arranged in the requested order
Out: P, Q, R, S

(P) O=c1ccc2cnc(Nc3ccc(N4CCC(O)CC4)cc3)nc2n1C1CCCC1
(Q) COc1cc(Nc2ncc3ccc(=O)n(C4CCCC4)c3n2)cc(C(F)(F)F)c1
In: Look at P and Q . Which one has the lower recorded pIC50 number? I would appreciate it if you answered with the label of your choice.
Out: Q
